biological target: UniProtKB Q5NUL3; experiment: Measurement of intracellular calcium concentration (FLIPR), GPR120 agonist action; settings: human GPR120 expression CHO cells, Fluo-4 AM, read-out: IC50 (GPR120 agonist action)
Sequence (Q5NUL3 whole entry): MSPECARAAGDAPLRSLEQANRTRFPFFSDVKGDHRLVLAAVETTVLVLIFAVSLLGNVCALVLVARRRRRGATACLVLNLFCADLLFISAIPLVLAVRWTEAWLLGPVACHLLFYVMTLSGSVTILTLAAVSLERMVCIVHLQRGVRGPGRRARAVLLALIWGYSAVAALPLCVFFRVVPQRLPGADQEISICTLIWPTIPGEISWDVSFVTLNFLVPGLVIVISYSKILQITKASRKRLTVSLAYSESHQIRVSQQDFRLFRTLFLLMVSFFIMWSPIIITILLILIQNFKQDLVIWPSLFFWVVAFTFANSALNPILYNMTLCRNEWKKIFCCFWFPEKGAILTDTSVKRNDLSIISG
READOUT_KIND: EC50 (µM)

Some compounds with known EC50 results, for comparison:
compound_structure_string=CC(C)Nc1cccc(CCOc2ccc(-c3cc(O)no3)cc2)c1 measured_value=0.15
compound_structure_string=Oc1cc(-c2cc(F)c(OCc3ccccc3Oc3ccccc3)c(F)c2)on1 measured_value=0.3

I: Oc1cc(-c2ccc(OCc3ccccc3Oc3ccccc3)nc2)on1
II: COCc1cccc(CCOc2ccc(-c3cc(O)no3)cc2)c1
III: CCOc1cccc(OCCc2ccc(-c3cc(O)no3)cc2)c1
IV: CC(C)Sc1ncccc1COc1ccc(-c2cc(O)no2)cc1
V: Cc1oc(-c2ccccc2)nc1CCOc1ccc(-c2cc(O)no2)cc1
Prompt line: Rank descending by EC50. Please respond with the labels ordered as the question requires.
Response line: V, II, I, III, IV
